# System: DNA
# test.details: Binding affinity to calf thymus DNA at pH 7.0 at 20 uM after 36 hrs by thermal denaturation assay
# Type: nucleic-acid assay
# run.parameters: Bos taurus
measured.endpoint: ΔTm (°C)

# compound.smiles, recorded.result
data = [
    ("COc1cc2c(cc1OCCCSc1nnc3n1S(=O)(=O)c1ccccc1N3c1ccccc1)N=C[C@@H]1CCCN1C2=O", 1.5),
    ("COc1cc2c(cc1OCCCCSc1nnc3n1S(=O)(=O)c1ccccc1N3c1ccccc1)N=C[C@@H]1CCCN1C2=O", 0.7),
    ("COc1cc2c(cc1OCCCSc1nnc3n1S(=O)(=O)c1ccccc1N3C)N=C[C@@H]1CCCN1C2=O", 1.7),
    ("COc1cc2c(cc1OCCCCCSc1nnc3n1S(=O)(=O)c1ccccc1N3C)N=C[C@@H]1CCCN1C2=O", 2.6),
    ("COc1cc2c(cc1OCCCCCSc1nnc3n1S(=O)(=O)c1ccccc1N3c1ccccc1)N=C[C@@H]1CCCN1C2=O", 1.5),
    ("COc1cc2c(cc1OCCCCSc1nnc3n1S(=O)(=O)c1ccccc1N3C)N=C[C@@H]1CCCN1C2=O", 0.7),
    ("COc1cc2c(cc1O)N=C[C@@H]1CCCN1C2=O", 0.7),
]

---

# Test system: DNA
# test.details: Binding affinity to calf thymus DNA at pH 7.0 at 20 uM after 18 hrs by thermal denaturation assay
# Assay type: nucleic-acid assay
# run.parameters: Bos taurus
ΔTm values for the compounds below.

# compound.smiles, ΔTm, °C
records = [
    ("COc1cc2c(cc1O)N=C[C@@H]1CCCN1C2=O", 0.7),
    ("COc1cc2c(cc1OCCCSc1nnc3n1S(=O)(=O)c1ccccc1N3c1ccccc1)N=C[C@@H]1CCCN1C2=O", 1.2),
    ("COc1cc2c(cc1OCCCCSc1nnc3n1S(=O)(=O)c1ccccc1N3c1ccccc1)N=C[C@@H]1CCCN1C2=O", 0.6),
]

---

# System: KB
# test.details: Cytotoxicity against human KB cells after 48 hrs by sulforhodamine B assay
# Assay type: functional

# compound.smiles, unit.text, GI50
rows = [
    ("COc1cc2c(cc1OCCCSc1nnc3n1S(=O)(=O)c1ccccc1N3C)N=C[C@@H]1CCCN1C2=O", "µM", 2.38),
    ("COc1cc2c(cc1OCCCCCSc1nnc3n1S(=O)(=O)c1ccccc1N3c1ccccc1)N=C[C@@H]1CCCN1C2=O", "µM", 2.46),
    ("COc1cccc2c1C(=O)c1c(O)c3c(c(O)c1C2=O)C[C@@](O)(C(=O)CO)C[C@@H]3O[C@H]1C[C@H](N)[C@H](O)[C@H](C)O1", "µM", 1.72),
    ("COc1cc2c(cc1OCCCCCSc1nnc3n1S(=O)(=O)c1ccccc1N3C)N=C[C@@H]1CCCN1C2=O", "µM", 25.6),
    ("COc1cc2c(cc1OCCCCSc1nnc3n1S(=O)(=O)c1ccccc1N3C)N=C[C@@H]1CCCN1C2=O", "µM", 26.4),
]

---

log10 GI50 values for the molecules below.
# Test system: A549
# test.details: Cytotoxicity against human A549 cells after 48 hrs by sulforhodamine B assay
# Type: functional
# run.parameters: A549, 48 h
measured.endpoint: log10 GI50 (log10 of the value in nM)

# compound.smiles, log10 GI50
records = [
    ("COc1cc2c(cc1OCCCCCSc1nnc3n1S(=O)(=O)c1ccccc1N3C)N=C[C@@H]1CCCN1C2=O", 3.39),
    ("COc1cc2c(cc1OCCCCSc1nnc3n1S(=O)(=O)c1ccccc1N3c1ccccc1)N=C[C@@H]1CCCN1C2=O", 4.47),
    ("COc1cc2c(cc1OCCCCSc1nnc3n1S(=O)(=O)c1ccccc1N3C)N=C[C@@H]1CCCN1C2=O", 3.36),
    ("COc1cc2c(cc1OCCCCCSc1nnc3n1S(=O)(=O)c1ccccc1N3c1ccccc1)N=C[C@@H]1CCCN1C2=O", 4.48),
    ("COc1cc2c(cc1OCCCSc1nnc3n1S(=O)(=O)c1ccccc1N3C)N=C[C@@H]1CCCN1C2=O", 3.36),
]
